// provenance: patent US20150337013A1

tested on: Staphylococcus aureus SAU.399 (ATCC 43300), Methicillin and Oxacillin Resistant; format: cell-based; conditions: MHBc with 50 mg/L calcium, 18-20 hours at 37° C.
Reported Sa399 MIC values follow for various compounds
endpointName: Sa399 MIC

compound	reported
C[C@H](CC(=O)O)[C@@H]1NC(=O)[C@@H](CO)NC(=O)CNC(=O)[C@H](CC(=O)O)NC(=O)[C@@H](C)NC(=O)[C@H](CC(=O)O)NC(=O)[C@H](CCCN)NC(=O)CNC(=O)[C@@H](NC(=O)[C@H](CC(=O)O)NC(=O)[C@@H](CC(N)=O)NC(=O)[C@H](Cc2c[nH]c3ccccc23)NC(=O)/C=C/c2ccc(-c3ccccc3)cc2)[C@@H](C)OC(=O)[C@H](CC(=O)c2ccccc2N)NC1=O [Compound 71]	2 µg/mL
C[C@H](CC(=O)O)[C@@H]1NC(=O)[C@@H](CO)NC(=O)CNC(=O)[C@H](CC(=O)O)NC(=O)[C@@H](C)NC(=O)[C@H](CC(=O)O)NC(=O)[C@H](CCCN)NC(=O)CNC(=O)[C@@H](NC(=O)[C@H](CC(=O)O)NC(=O)[C@@H](CC(N)=O)NC(=O)[C@H](Cc2c[nH]c3ccccc23)NC(=O)c2ccc(-c3ccc(-c4ccccc4)cc3)s2)[C@@H](C)OC(=O)[C@H](CC(=O)c2ccccc2N)NC1=O [Compound 52]	0.25 µg/mL
CCCCCCCCOc1ccc(-c2ccc(C(=O)N[C@@H](Cc3c[nH]c4ccccc34)C(=O)N[C@H](CC(N)=O)C(=O)N[C@@H](CC(=O)O)C(=O)N[C@@H]3C(=O)NCC(=O)N[C@@H](CCCN)C(=O)N[C@@H](CC(=O)O)C(=O)N[C@H](C)C(=O)N[C@@H](CC(=O)O)C(=O)NCC(=O)N[C@H](CO)C(=O)N[C@@H]([C@H](C)CC(=O)O)C(=O)N[C@@H](CC(=O)c4ccccc4N)C(=O)O[C@@H]3C)cc2)cc1 [Compound 64]	0.25 µg/mL

----------
system: Enterococcus faecalis EFS.201 (ATCC 49452); assay type: cell-based; conditions: MHBc with 50 mg/L calcium, 18-20 hours at 37° C.
endpointName: Efs201 MIC (µg/mL)

compound	targetUnderTest	reported
CCCCCCOc1ccc(-c2ccc(C(=O)N[C@@H](Cc3c[nH]c4ccccc34)C(=O)N[C@H](CC(N)=O)C(=O)N[C@@H](CC(=O)O)C(=O)N[C@@H]3C(=O)NCC(=O)N[C@@H](CCCN)C(=O)N[C@@H](CC(=O)O)C(=O)N[C@H](C)C(=O)N[C@@H](CC(=O)O)C(=O)NCC(=O)N[C@H](CO)C(=O)N[C@@H]([C@H](C)CC(=O)O)C(=O)N[C@@H](CC(=O)c4ccccc4N)C(=O)O[C@@H]3C)cc2)cc1 [Compound 62]	Enterococcus faecalis EFS.201 (ATCC 49452)	0.25
C[C@H](CC(=O)O)[C@@H]1NC(=O)[C@@H](CO)NC(=O)CNC(=O)[C@H](CC(=O)O)NC(=O)[C@@H](C)NC(=O)[C@H](CC(=O)O)NC(=O)[C@H](CCCN)NC(=O)CNC(=O)[C@@H](NC(=O)[C@H](CC(=O)O)NC(=O)[C@@H](CC(N)=O)NC(=O)[C@H](Cc2c[nH]c3ccccc23)NC(=O)c2ccc(-c3ccc(-c4ccccc4)cc3)s2)[C@@H](C)OC(=O)[C@H](CC(=O)c2ccccc2N)NC1=O [Compound 52]	Enterococcus faecalis EFS.201 (ATCC 49452)	0.5
CCCCCCCCCOc1ccc(C(=O)N[C@@H](Cc2c[nH]c3ccccc23)C(=O)N[C@H](CC(N)=O)C(=O)N[C@@H](CC(=O)O)C(=O)N[C@@H]2C(=O)NCC(=O)N[C@@H](CCCN)C(=O)N[C@@H](CC(=O)O)C(=O)N[C@H](C)C(=O)N[C@@H](CC(=O)O)C(=O)NCC(=O)N[C@H](CO)C(=O)N[C@@H]([C@H](C)CC(=O)O)C(=O)N[C@@H](CC(=O)c3ccccc3N)C(=O)O[C@@H]2C)cc1 [Compound 37]	Enterococcus faecalis EFS.201 (ATCC 49452)	0.5
